This listing pairs compounds with measured GI50.
tested on: UACC-257; test: NCI tumour cell line growth inhibition, 48 h
Active and inactive are the calls of the source. Rule as the data show it: active = GI50 up to about 1.1 µM and inactive = higher.
MEASURED_ATTRIBUTE: GI50

[
  {
    "COMPOUND": "Nc1cc2c(C3OC(CO)C(O)C3O)n[nH]c2c(=S)[nH]1 (stereo not drawn)",
    "ASSAY_VALUE": "> 100 µM (inactive)"
  },
  {
    "COMPOUND": "NS(=O)(=O)c1ccc(NC(=S)NC=C2C(=O)c3ccccc3C2=O)cc1",
    "ASSAY_VALUE": "> 100 µM (inactive)"
  },
  {
    "COMPOUND": "CC(=O)ON(C(C)=O)c1ccc(-c2nc3ccccc3s2)cc1C",
    "ASSAY_VALUE": "50 µM (inactive)"
  }
]

* * *

system: SK-MEL-2; experiment: NCI tumour cell line growth inhibition, 48 h
Activity calls are given as the source filed them. Rule as the data show it: active = GI50 up to about 1.1 µM and inactive = higher.
Possible outcomes: active, inactive

[
  {
    "COMPOUND": "C/C(=N/NC(=O)C(N)=O)C(CC(C(=O)Nc1ccccc1C)/C(C)=N\\NC(=O)C(N)=O)C(=O)Nc1ccccc1C (centres undefined)",
    "CLASSIFICATION": "inactive"
  },
  {
    "COMPOUND": "CC(C)(C)OC(=O)n1c(-c2ccccc2F)cc(=O)c2cc3c(cc21)OCO3",
    "CLASSIFICATION": "active"
  },
  {
    "COMPOUND": "CC[S+]([O-])c1c2cc(OC)ccc2nc2ccc(OC)cc12 (centres undefined)",
    "CLASSIFICATION": "inactive"
  },
  {
    "COMPOUND": "O=C1c2ccccc2C(O)(O)C1(O)C1(O)C(=O)c2ccccc2C1(O)O (centres undefined)",
    "CLASSIFICATION": "inactive"
  },
  {
    "COMPOUND": "CCOC(=O)c1csc(NC(=O)CCCC#N)n1",
    "CLASSIFICATION": "inactive"
  },
  {
    "COMPOUND": "C=CCNC1=C2C[C@@H](C)C[C@H](OC)[C@H](O)[C@@H](C)/C=C(\\C)[C@H](OC(N)=O)[C@@H](OC)/C=C\\C=C(/C)C(=O)NC(=CC1=O)C2=O [TANESPIMYCIN]",
    "CLASSIFICATION": "active"
  },
  {
    "COMPOUND": "CCOC(=O)C(Cc1ccc2c(c1)CCC2)Cc1ccc2c(c1)CCC2",
    "CLASSIFICATION": "inactive"
  },
  {
    "COMPOUND": "CC(C)(CN1CCCCC1)C(=O)/C=C/c1ccc(Br)cc1",
    "CLASSIFICATION": "inactive"
  },
  {
    "COMPOUND": "O=C(O)c1cc(O)nc(SCc2ccccc2)n1",
    "CLASSIFICATION": "inactive"
  }
]

* * *

tested on: DLD-1; assay: NCI tumour cell line growth inhibition, 48 h
The source made the active and inactive calls. Rule as the data show it: active = GI50 up to about 1.1 µM and inactive = higher.
Possible outcomes: active, inactive

[
  {
    "MOLECULE": "COc1ccc(/N=C/c2ccc(N(CCC#N)S(=O)(=O)c3ccccc3)cc2)cc1",
    "SYSTEM_UNDER_TEST": "DLD-1",
    "CLASSIFICATION": "inactive"
  },
  {
    "MOLECULE": "COc1ccc(C(=O)C#Cc2cnc(O)nc2O)cc1",
    "SYSTEM_UNDER_TEST": "DLD-1",
    "CLASSIFICATION": "inactive"
  },
  {
    "MOLECULE": "Cc1cc(C)c2[s+]snc2c1",
    "SYSTEM_UNDER_TEST": "DLD-1",
    "CLASSIFICATION": "inactive"
  },
  {
    "MOLECULE": "CN(C)CCSc1nccc(-c2ccc(-c3ccnc(SCCN(C)C)n3)s2)n1",
    "SYSTEM_UNDER_TEST": "DLD-1",
    "CLASSIFICATION": "inactive"
  },
  {
    "MOLECULE": "CC(=O)N(C(C)=O)C1=C2c3ccccc3N(S(=O)(=O)c3ccccc3)C2n2c(=O)n(-c3ccccc3)c(=O)n2C1 (stereo unspecified)",
    "SYSTEM_UNDER_TEST": "DLD-1",
    "CLASSIFICATION": "inactive"
  },
  {
    "MOLECULE": "S=c1sc2c(S)nc(S)nc2n1-c1ccccc1",
    "SYSTEM_UNDER_TEST": "DLD-1",
    "CLASSIFICATION": "inactive"
  },
  {
    "MOLECULE": "C=C(C)[C@H]1Cc2c(ccc3c2O[C@@H]2COc4cc(OC)c(OC)cc4[C@@H]2C3=O)O1",
    "SYSTEM_UNDER_TEST": "DLD-1",
    "CLASSIFICATION": "active"
  },
  {
    "MOLECULE": "CCOc1ccc(NC(=O)CCc2nnc(SC)o2)cc1",
    "SYSTEM_UNDER_TEST": "DLD-1",
    "CLASSIFICATION": "inactive"
  },
  {
    "MOLECULE": "COC1OC(C)C(OCc2ccccc2)C(OS(=O)(=O)c2ccc(C)cc2)C1OS(=O)(=O)c1ccc(C)cc1 (stereo unspecified)",
    "SYSTEM_UNDER_TEST": "DLD-1",
    "CLASSIFICATION": "inactive"
  },
  {
    "MOLECULE": "CCOC1=C2N=C(Cc3ccc(F)cc3)NC2C(=O)c2ccccc21 (stereo unspecified)",
    "SYSTEM_UNDER_TEST": "DLD-1",
    "CLASSIFICATION": "inactive"
  },
  {
    "MOLECULE": "CCCCOC(=O)N[C@H]1CCc2cc(OC)c(OC)c(OC)c2-c2ccc(SC)c(=O)cc21",
    "SYSTEM_UNDER_TEST": "DLD-1",
    "CLASSIFICATION": "active"
  },
  {
    "MOLECULE": "O=C1OC(c2ccc(Cl)cc2)(c2ccc(Cl)cc2)c2c1ccc1ccccc21",
    "SYSTEM_UNDER_TEST": "DLD-1",
    "CLASSIFICATION": "inactive"
  },
  {
    "MOLECULE": "CC(=O)O[C@H]1C(=O)[C@@]2(C)C(C(OC(=O)c3ccccc3)C3[C@@H](O)C(OC(=O)[C@@H](O)[C@H](NC(=O)c4ccccc4)c4ccc(C(F)(F)F)cc4)C(C)=C1C3(C)C)[C@]1(OC(C)=O)CO[C@@H]1C[C@@H]2O (stereo partly specified)",
    "SYSTEM_UNDER_TEST": "DLD-1",
    "CLASSIFICATION": "inactive"
  },
  {
    "MOLECULE": "CC1=C(C(=O)Nc2ccc(Cl)c(Cl)c2)C(c2ccco2)C(C(=O)Nc2ccc(Cl)c(Cl)c2)=C(C)N1",
    "SYSTEM_UNDER_TEST": "DLD-1",
    "CLASSIFICATION": "inactive"
  },
  {
    "MOLECULE": "C=C(CS(=O)(=O)c1ccccc1)C(=O)OCC",
    "SYSTEM_UNDER_TEST": "DLD-1",
    "CLASSIFICATION": "inactive"
  },
  {
    "MOLECULE": "COc1ccc2c(c1)CC[C@@H]1C2CC[C@]2(C)C(=O)NC(=O)CC12 (stereo partly specified)",
    "SYSTEM_UNDER_TEST": "DLD-1",
    "CLASSIFICATION": "inactive"
  }
]

* * *

test system: M14; experiment: NCI tumour cell line growth inhibition, 48 h
Activity calls are given as the source filed them. Cut-off read from the data, not from the text of the source: active = GI50 up to about 1.1 µM and inactive = higher.
Possible outcomes: active, inactive

[
  {
    "COMPOUND": "O=C1Cc2c(-c3ccc(Cl)cc3)cc(-c3ccccc3)nc2-c2ccccc2N1",
    "CLASSIFICATION": "inactive"
  },
  {
    "COMPOUND": "CSC1(Cc2ccccn2)C(=O)Nc2cccc([N+](=O)[O-])c21 (stereo not drawn)",
    "CLASSIFICATION": "inactive"
  },
  {
    "COMPOUND": "CCOC(=O)c1c(N2CCOCC2)[nH]c(=O)c(C(c2ccco2)c2c(O)c(C(=O)OCC)c(N3CCOCC3)[nH]c2=O)c1O",
    "CLASSIFICATION": "inactive"
  },
  {
    "COMPOUND": "CC(=O)N(C(C)=O)C1=C2c3ccccc3N(S(=O)(=O)c3ccccc3)C2n2c(=O)n(-c3ccccc3)c(=O)n2C1 (stereo not drawn)",
    "CLASSIFICATION": "inactive"
  },
  {
    "COMPOUND": "CNC(=S)/C(=N\\Nc1[nH]cnc1C(N)=O)C(N)=S",
    "CLASSIFICATION": "active"
  },
  {
    "COMPOUND": "O=C1CSC(c2ccccc2O)N1c1ccc(Oc2ccc(Cl)cc2)c(Cl)c1 (stereo not drawn)",
    "CLASSIFICATION": "inactive"
  },
  {
    "COMPOUND": "Cc1cc(/C=C/c2cc[n+](C)c3ccccc23)c(O)c2ncccc12",
    "CLASSIFICATION": "inactive"
  },
  {
    "COMPOUND": "O=c1c2c(-c3ccccc3)onc2n(-c2ccccc2)c(=O)n1-c1ccccc1",
    "CLASSIFICATION": "inactive"
  },
  {
    "COMPOUND": "CCOC(=O)NC(Nc1ccc(S(=O)(=O)Nc2ncccn2)cc1)(C(=O)OCC)C(F)(F)F (stereo not drawn)",
    "CLASSIFICATION": "inactive"
  },
  {
    "COMPOUND": "O=C(O)CCCSC(=O)Nc1ccc(/N=N/c2ccccc2)cc1",
    "CLASSIFICATION": "inactive"
  },
  {
    "COMPOUND": "COc1c(-c2cc(C)c(Cl)c(=O)[nH]2)c(O)c(OC)c2occc12",
    "CLASSIFICATION": "inactive"
  },
  {
    "COMPOUND": "Cc1cc(=O)oc2c(CNC(Cc3ccccc3)C(=O)O)c(O)ccc12 (stereo not drawn)",
    "CLASSIFICATION": "inactive"
  },
  {
    "COMPOUND": "Cc1cc(C)c([S@@](=O)O[C@@H]2[C@H]3OC(C)(C)O[C@H]3O[C@@H]2[C@H]2COC(C)(C)O2)c(C)c1",
    "CLASSIFICATION": "inactive"
  },
  {
    "COMPOUND": "CCOc1ccc2c(c1)C(/C(C(Cl)=C(Cl)Cl)=[N+](/[O-])OC(=O)c1ccccc1)=N2",
    "CLASSIFICATION": "inactive"
  },
  {
    "COMPOUND": "COc1ccccc1C(O)[C@@H]1C[C@@H]2[C@H]3CC[C@@](C)([C@@H]2O1)C3(C)C (stereo partly drawn)",
    "CLASSIFICATION": "inactive"
  },
  {
    "COMPOUND": "COc1ccc2c(C)cc(N/N=C/c3sccc3C)nc2c1",
    "CLASSIFICATION": "inactive"
  },
  {
    "COMPOUND": "N#CC(NNC(=O)Cc1ccccc1)c1ccccc1O (stereo not drawn)",
    "CLASSIFICATION": "inactive"
  },
  {
    "COMPOUND": "O=C(OC1CN2CCC1CC2)N(c1ccccc1)c1ccccc1 (stereo not drawn)",
    "CLASSIFICATION": "inactive"
  },
  {
    "COMPOUND": "O=C(c1ccc([N+](=O)[O-])cc1)C(Br)C(Br)c1ccnc2ccccc12 (stereo not drawn)",
    "CLASSIFICATION": "inactive"
  },
  {
    "COMPOUND": "CCOC(=O)CC(NC(=O)c1ccc(/N=N/N(C)C)cc1)C(=O)OCC (stereo not drawn)",
    "CLASSIFICATION": "inactive"
  },
  {
    "COMPOUND": "N#Cc1c2c(c(Nc3ccc(Cl)cc3)n3c1nc1ccccc13)CCCC2",
    "CLASSIFICATION": "inactive"
  },
  {
    "COMPOUND": "C1COCCSC2=C(SCCO1)SC(=C1SC3=C(SCCOCCOCCS3)S1)S2",
    "CLASSIFICATION": "inactive"
  },
  {
    "COMPOUND": "CC12C=C[C@]3(CC[C@@H]4[C@@](C)(CO)CCC[C@]4(C)C3CC1)C2 (stereo partly drawn)",
    "CLASSIFICATION": "inactive"
  },
  {
    "COMPOUND": "NC(=O)N/N=C(/Cc1nc2ccc(C(=O)c3ccccc3)cc2nc1O)C(=O)Nc1ccc(C(F)(F)F)cc1[N+](=O)[O-]",
    "CLASSIFICATION": "inactive"
  },
  {
    "COMPOUND": "CCn1nc(-c2ccccc2)c2c1N(C)c1ccccc1-n1c(-c3ccccc3)nnc1-2",
    "CLASSIFICATION": "inactive"
  },
  {
    "COMPOUND": "Cc1cc(C)c(C(=O)/C(=C/c2ccccc2)c2ccccc2)c(C)c1",
    "CLASSIFICATION": "inactive"
  },
  {
    "COMPOUND": "O=c1[nH]cnc2c1ncn2C1SC(CO)C(O)C1O (stereo not drawn)",
    "CLASSIFICATION": "inactive"
  },
  {
    "COMPOUND": "CCOC(=O)C1(C(=O)OCC)CN(CC)CN(c2ccccc2)C1",
    "CLASSIFICATION": "inactive"
  },
  {
    "COMPOUND": "N#Cc1c(N)nc2[nH]nc(N)c2c1-c1ccccc1",
    "CLASSIFICATION": "inactive"
  },
  {
    "COMPOUND": "C=CCN1C(=O)/C(=C/c2ccccc2)N=C1SC/C=C/C",
    "CLASSIFICATION": "inactive"
  },
  {
    "COMPOUND": "Cc1ccc(NC(=O)CC(=O)N2N=C(N3CCCCC3)CC2c2ccccc2)cc1 (stereo not drawn)",
    "CLASSIFICATION": "inactive"
  },
  {
    "COMPOUND": "O=C(/C=C/c1ccc(O)cc1)c1ccc2c(c1)OCO2",
    "CLASSIFICATION": "inactive"
  },
  {
    "COMPOUND": "CC12CC(=O)Nc3ccccc3N1C(c1ccccc1)=NO2 (stereo not drawn)",
    "CLASSIFICATION": "inactive"
  }
]
